# system: furin, P09958;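 note: purified furin at 1:10 enzyme:substrate in 50 mM HEPES pH 7.5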
# Sequence (P09958 whole entry): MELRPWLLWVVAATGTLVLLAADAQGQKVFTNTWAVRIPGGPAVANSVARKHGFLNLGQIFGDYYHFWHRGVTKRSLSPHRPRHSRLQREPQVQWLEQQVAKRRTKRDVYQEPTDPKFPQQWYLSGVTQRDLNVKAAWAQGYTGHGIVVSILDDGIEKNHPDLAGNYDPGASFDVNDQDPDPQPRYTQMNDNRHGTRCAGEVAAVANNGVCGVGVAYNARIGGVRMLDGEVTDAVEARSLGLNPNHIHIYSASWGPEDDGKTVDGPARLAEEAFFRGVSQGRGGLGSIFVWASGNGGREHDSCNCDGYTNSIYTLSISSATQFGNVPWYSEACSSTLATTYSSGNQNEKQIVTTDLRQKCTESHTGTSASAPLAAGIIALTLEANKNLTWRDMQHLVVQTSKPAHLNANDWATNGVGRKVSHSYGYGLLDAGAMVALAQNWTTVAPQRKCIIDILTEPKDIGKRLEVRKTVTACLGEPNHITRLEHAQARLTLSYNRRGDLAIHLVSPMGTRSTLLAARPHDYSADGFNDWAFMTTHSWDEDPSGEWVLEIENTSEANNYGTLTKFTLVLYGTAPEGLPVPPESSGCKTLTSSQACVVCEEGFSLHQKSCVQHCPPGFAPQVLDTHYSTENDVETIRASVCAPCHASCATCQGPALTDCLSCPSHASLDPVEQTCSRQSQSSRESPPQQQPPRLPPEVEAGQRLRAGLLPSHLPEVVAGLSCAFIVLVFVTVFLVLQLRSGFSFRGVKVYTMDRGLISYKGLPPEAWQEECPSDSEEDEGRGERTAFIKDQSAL
# experimental_protocol: furin cleavage Z-score vs untreated control; higher = more cleavage, active = 3.5 or more, inactive = 1 or less, 8 variable residues between constant flanks
# stated_conditions: 15 min
The list shows a part of the results. The true hit rate is not given.
readout_kind: furin cleavage Z-score

1. CARTPCSAHLAGNASASA [HC2473]
-0.775
2. CAEDVVCCSMAGNASASA [HC1368]
0.686
3. CARPRRDSAGAGNASASA [FS-2500]
-0.366
4. CARPRRDAAEAGNASASA [FS-2741]
11
5. CAETPCHRPSAGNASASA [HC2338]
-0.0389
6. CARPRRDCVAAGNASASA [FS-2440]
5.89
7. CARPRRDAEPAGNASASA [FS-1762]
12.9
